Recorded values, source patent US6924289B2.

Please respond with reported melting point for every item in the list.

Fill in: melting point of CN1CCN(c2ccccc2C=C2C(=O)N(C)c3ccccc32)CC1.Cl.O (hydrate or solvate) is ___
120 °C (dec.)

How about this compound: CN1CCN(c2ccc(F)cc2C=C2CCCN(c3ccc(Cl)c(Cl)c3)C2=O)CC1
161 to 162 °C

Also need CN1CCN(c2ccccc2C=C2CCN(c3ccccc3)C2=O)CC1 , thanks.
178 to 179.5 °C

Then this compound: CN1CCN(c2ccc(F)cc2CC2CCCN(c3ccc(Cl)c(Cl)c3)C2=O)CC1.Cl (stereo not shown)
83 to 85 °C

----------
Structures can show the parent of a compound that is named as a salt.
Answer each item with its documented melting point.

If you can, please state the reported melting point value of CN1CCN(c2ccccc2C=C2CCN(c3ccc(C(F)(F)F)cc3)C2=O)CC1 (as salt: hydrochloride) (hydrate or solvate) [Example 16] .
181 to 183 °C

Subsequent entry: CN1CCN(c2cccc(F)c2C=C2CCN(c3ccc(Cl)c(Cl)c3)C2=O)CC1
170 to 171 °C

Same question for CN1CCN(c2ccccc2CC2CCCN(c3ccc(Cl)c(Cl)c3)C2=O)CC1.Cl (centres unmarked) please.
106 to 108 °C

Field entry: CN1CCN(c2ccccc2C=C2CCN(c3ccc(C(F)(F)F)cc3)C2=O)CC1 [Example 16]
185 to 186.5 °C

Param item: CN1CCN(c2cc(F)ccc2C=C2CCN(c3ccccc3)C2=O)CC1
199 to 200.5 °C

Another compound: CN1CCN(c2ccc(F)cc2C=C2CCCN(c3ccc(Cl)cc3)C2=O)CC1
158 to 159 °C

Same question for CN1CCN(c2ccccc2C=C2CCCN(c3ccc(Cl)c(Cl)c3)C2=O)CC1 please.
138 to 139.5 °C

Same question for CN1CCN(c2ccccc2CC2CCN(c3ccc(F)c(F)c3)C2=O)CC1 (centres unmarked) please.
130 to 131 °C

Ok, now CN1CCN(c2ccccc2C=C2CCN(Cc3ccc(Cl)cc3)C2=O)CC1
129 to 130 °C

Queued: CN(C)CCOc1ccccc1C=C1CCN(c2ccc(Cl)c(Cl)c2)C1=O (as salt: HCl)
111 to 112 °C

Check Cc1ccc(N2CCN(C)CC2)c(C=C2CCN(c3ccc(Cl)c(Cl)c3)C2=O)c1 too.
149 to 150 °C

Thanks! And CN1CCN(c2ccccc2CC2CCN(c3ccccc3)C2=O)CC1 (centres unmarked) ?
104 to 105.5 °C

Then what about the compound CN1CCN(c2ccc(F)cc2C=C2CCCN(c3ccc(F)c(F)c3)C2=O)CC1 ?
168 to 170 °C

Another compound to check: CN1CCN(c2ccccc2C=C2CCCN(c3ccc(Cl)cc3)C2=O)CC1
177 to 178 °C

Same thing, different compound: CN1CCN(c2ccccc2C=C2CCN(c3ccc(Cl)cc3)C2=O)CC1
188 to 190 °C

Same question for CN1CCN(c2ccc(F)cc2C=C2CCN(Cc3ccc(Cl)cc3)C2=O)CC1 please.
131 to 132 °C

Now give it for CN1CCN(c2ccc(F)cc2C=C2CCCN(CCc3ccc(Cl)cc3)C2=O)CC1 too.
88 to 90 °C
